protocol.notes: SK-BR-3 cell growth inhibitors, pilot screen, 24 h, human (AID 572);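 also: compound exposure lasted between 18 and 24 h rather than exactly 24 h; 100% = carrier-treated control wells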
run.conditions: SK-BR-3 viability, CellTiter-Glo luminescence, at 10 µM, hits give low values
A collection of compounds and their measured viability

{"columns": ["compound", "viability [%]"],
 "data": [
  ["COc1ccc(C(=O)Nc2ccc(S(=O)(=O)NC(C)=O)cc2)cc1", 120],
  ["CCCCCCOC(=O)C(C#N)c1nc2ccccc2nc1N1CCCCC1 (configuration not stated)", 94],
  ["CCn1c(=O)c(C(=O)Nc2cccnc2)c(O)c2ccccc21", 103],
  ["O=C(Nc1ccc2c(c1)OCO2)c1nn(-c2ccccc2)c(=O)c2ccccc12", 108],
  ["CCCn1c(NC(=O)C2COc3ccccc3O2)nc2ccccc21 (configuration not stated)", 99.5],
  ["Cc1nc(NC2=NCN(CC3CCCO3)CN2)nc2ccccc12 (configuration not stated)", 98.5],
  ["N#CCSc1nc2c(c(C3CC=CCC3)c1C#N)CCC2 (configuration not stated)", 88.5],
  ["CSC1=C(C#N)C(c2ccc(Cl)cc2)C2=C(CC(C)(C)CC2=O)N1 (configuration not stated)", 102],
  ["CCc1cccc2c(=O)c(C(=O)N3CCCCCC3)c[nH]c12", 104],
  ["CCOC(=O)c1c(NC(=O)CSc2nnc(-c3ccc(OC)cc3)o2)sc2c1CCC2", 88],
  ["O=C(CSc1ncnc2c1oc1ccccc12)NCc1ccco1", 140],
  ["Cc1nnc(C)n1/N=C/c1cccc(Oc2ccccc2)c1", 100]
]}
